B1: KLHDC10 (parent)
chain: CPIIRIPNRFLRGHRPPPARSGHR

# Variants of: B1
# PROTOCOL DESCRIPTION: protein stability index of a GFP-peptide fusion (GPS, HEK-293T) (PSI 1-6); higher = more stable;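 note: lentivirally expressed fusions sorted by FACS into six bins by GFP to DsRed ratio, PSI derived from sequencing read proportions per bin multiplied by bin number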
# RUN CONDITIONS: c terminus: a fixed tail appended
# protein stability index annotations
Enter a number only.

GET /values?readout=protein stability index&item= `I3M`
2.09

GET /values?readout=protein stability index&item= `R15W`
1.47

GET /values?readout=protein stability index&item= `R24N`
1.84

GET /values?readout=protein stability index&item= `P18V`
2.27

GET /values?readout=protein stability index&item= `R9K`
1.37

GET /values?readout=protein stability index&item= `P7W`
3.51

GET /values?readout=protein stability index&item= `P17C`
1.21

GET /values?readout=protein stability index&item= `P16D`
1.72

GET /values?readout=protein stability index&item= `R12A`
1.71

GET /values?readout=protein stability index&item= `G22N`
1.95

GET /values?readout=protein stability index&item= `F10M`
1.82

GET /values?readout=protein stability index&item= `P16C`
2.5
